Values from ChEMBL document CHEMBL1156794

# System: Pseudomonas aeruginosa
# protocol-notes: Antibacterial activity against MexXY expressing Pseudomonas aeruginosa PT629 after 24 hrs by geometric microdilution method
# Assay type: functional
# assay-context: PT629, 24 h
Assignment: determine reported MIC for the given compounds.
Quick reminder: number only, in mg/L, skip the unit.

Exam item: Item NCC[C@H](O)C(=O)N[C@@H]1C[C@H](N)[C@@H](O[C@H]2O[C@H](CN)[C@@H](O)[C@H](O)[C@H]2O)[C@H](O)[C@H]1O[C@H]1O[C@H](CO)[C@@H](O)[C@H](N)[C@H]1O has what recorded MIC?
Marked response: 8

Exam item: Item NC[C@H]1O[C@H](O[C@H]2[C@H](OCc3ccc4ccccc4c3)[C@@H](OCc3ccc4ccccc4c3)[C@H](N)C[C@@H]2N)[C@H](N)[C@@H](OCc2ccc3ccccc3c2)[C@@H]1OCc1ccc2ccccc2c1 has what recorded MIC?
Marked response: 64

====

# Test system: Staphylococcus aureus
# protocol-notes: Antibacterial activity against aminoglycoside-6'-N-acetyltransferase/2''-O-phosphoryltransferase expressing Staphylococcus aureus after 24 hrs by geometric microdilution method
# Assay type: functional
Assignment: determine reported MIC for the given compounds.

Exam item: Item NC[C@H]1O[C@H](O[C@H]2[C@H](O)[C@@H](OCc3ccccn3)[C@H](N)C[C@@H]2N)[C@H](N)[C@@H](OCc2ccccn2)[C@@H]1OCc1ccccn1 has what recorded MIC?
Marked response: > 128 µg/mL

Exam item: Item NC[C@H]1O[C@H](O[C@H]2[C@H](O)[C@@H](O)[C@H](N)C[C@@H]2N)[C@H](N)[C@@H](O)[C@@H]1OCc1ccc2ccccc2c1 has what recorded MIC?
Marked response: > 128 µg/mL

Exam item: Item NC[C@@H]1O[C@H](O[C@H]2[C@@H](O)[C@H](O[C@@H]3[C@@H](O)[C@H](N)C[C@H](N)[C@H]3O[C@H]3O[C@H](CN)[C@@H](O)[C@H](O)[C@H]3N)O[C@@H]2CO)[C@H](N)[C@@H](O)[C@@H]1O [FRAMYCETIN] has what recorded MIC?
Marked response: 1 µg/mL

====

# System: Acinetobacter lwoffii
# protocol-notes: Antibacterial activity against […] expressing Acinetobacter lwoffii AI.88-483 after 24 hrs by geometric microdilution method
# Type: functional
# assay-context: AI.88-483, 24 h
Assignment: determine reported MIC for the given compounds.

Exam item: Item NC[C@H]1O[C@H](O[C@H]2[C@H](O)[C@@H](OCc3ccccc3)[C@H](N)C[C@@H]2N)[C@H](N)[C@@H](OCc2ccccc2)[C@@H]1OCc1ccccc1 has what recorded MIC?
Marked response: > 128 µg/mL

Exam item: Item NC[C@H]1O[C@H](O[C@H]2[C@H](O)[C@@H](OCc3ccc4ccccc4n3)[C@H](N)C[C@@H]2N)[C@H](N)[C@@H](OCc2ccc3ccccc3n2)[C@@H]1OCc1ccc2ccccc2n1 has what recorded MIC?
Marked response: > 128 µg/mL

Exam item: Item NC[C@H]1O[C@H](O[C@H]2[C@H](O)[C@@H](OCc3ccc4ccccc4c3)[C@H](N)C[C@@H]2N)[C@H](N)[C@@H](OCc2ccc3ccccc3c2)[C@@H]1OCc1ccc2ccccc2c1 has what recorded MIC?
Marked response: 32 µg/mL

Exam item: Item NC[C@H]1O[C@H](O[C@H]2[C@H](O)[C@@H](OCc3ccc4ccccc4c3)[C@H](N)C[C@@H]2N)[C@H](N)[C@@H](O)[C@@H]1OCc1ccc2ccccc2c1 has what recorded MIC?
Marked response: > 128 µg/mL

Exam item: Item NC[C@H]1O[C@H](O[C@H]2[C@H](O)[C@@H](O)[C@H](N)C[C@@H]2N)[C@H](N)[C@@H](O)[C@@H]1O has what recorded MIC?
Marked response: > 128 µg/mL

Exam item: Item NC[C@H]1O[C@H](O[C@H]2[C@H](O)[C@@H](O)[C@H](N)C[C@@H]2N)[C@H](N)[C@@H](OCc2ccc3ccccc3c2)[C@@H]1OCc1ccc2ccccc2c1 has what recorded MIC?
Marked response: > 128 µg/mL
